Reference source for all entries: the RNAGym collection of RNA variant scans (doi:10.7554/elife.90254)

B1: LINE1-mini (parent)
chain: GGCAGAGCUCAACACAGCGUGGCAAAGUGGCUGUGGCUAGACUGCC

Variants of: B1
Protocol summary: self-cleavage, relative activity (ratio to wild type); higher = more cleavage; in vitro, sequencing; the parent is a self-cleaving ribozyme
Observation type: self-cleavage
// response body must contain only the number

C8G U32G; 0.06

--- query ---
Looking for the measured self-cleavage of C3G U20A , can you help?
0.35
